This collection of values is drawn from patent US7199127B2.

This listing pairs compounds with measured Ki.
# TEST_TARGET: rA1 adenosine receptor (Rattus norvegicus)
# Sequence (P25099 1-326): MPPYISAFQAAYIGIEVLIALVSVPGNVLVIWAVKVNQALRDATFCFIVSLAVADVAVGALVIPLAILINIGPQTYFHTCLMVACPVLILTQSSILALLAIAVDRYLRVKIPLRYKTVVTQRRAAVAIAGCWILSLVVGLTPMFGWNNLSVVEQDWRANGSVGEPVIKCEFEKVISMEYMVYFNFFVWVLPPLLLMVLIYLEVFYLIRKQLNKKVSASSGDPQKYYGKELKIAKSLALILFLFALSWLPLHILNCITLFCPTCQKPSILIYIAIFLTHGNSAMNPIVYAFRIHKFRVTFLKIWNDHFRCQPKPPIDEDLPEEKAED
Write the answer as a number in nM, unit excluded.

Illustrative cases are given below, each with its answer.
>>> print(df.to_string())
                                   compound  recorded_value
0  CNC(=O)[C@H]1S[C@@H](n2cnc3c(N)nc(Cl)nc32)[C@H](O)[C@@H]1O [Compound 29]             294
1  CNc1nc(Cl)nc2c1ncn2[C@@H]1S[C@H](CO)[C@@H](O)[C@H]1O [Compound 23]             780

Field: next compound
## Input Query: Ki; subject: CNC(=O)[C@H]1S[C@@H](n2cnc3c(NC)nc(Cl)nc32)[C@H](O)[C@@H]1O [Compound 33]
## Output 198

----------
# TEST_TARGET: hA2a adenosine receptor (Homo sapiens)
# Sequence (P29274 whole entry): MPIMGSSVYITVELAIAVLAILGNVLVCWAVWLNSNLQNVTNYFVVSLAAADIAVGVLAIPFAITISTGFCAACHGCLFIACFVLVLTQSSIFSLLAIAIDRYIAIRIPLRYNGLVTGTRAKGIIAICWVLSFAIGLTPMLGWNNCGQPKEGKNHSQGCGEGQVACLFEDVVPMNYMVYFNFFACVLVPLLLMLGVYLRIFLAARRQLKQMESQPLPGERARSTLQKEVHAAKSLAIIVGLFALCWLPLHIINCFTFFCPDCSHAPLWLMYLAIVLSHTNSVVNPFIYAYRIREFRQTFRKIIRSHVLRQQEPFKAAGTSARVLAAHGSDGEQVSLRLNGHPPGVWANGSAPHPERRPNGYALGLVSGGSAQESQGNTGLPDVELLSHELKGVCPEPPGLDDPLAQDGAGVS
# MEASUREMENT_DESCRIPTION: Binding of [3H]CGS21680 to A2a (human)
# RUN_PARAMETERS: [3H]CGS21680, Cheng-Prusoff
ASSAY_ENDPOINT: Ki (nM)
Write the answer as a number in nM, unit excluded.

## Input Query: Ki; subject: CNC(=O)[C@H]1S[C@@H](n2cnc3c(N)nc(Cl)nc32)[C@H](O)[C@@H]1O
## Output 158

----------
# TEST_TARGET: rA2a adenosine receptor (Rattus norvegicus, UniProt P30543)
# Construct: Striatal and forebrain tissues from Wistar rats were homogenized in ice-cold 50 mM Tris.HCl buffer; from tissue; host or cells: Wistar rat brain membranes (striatum for A2a is my own knowledge)
# Sequence (P30543 whole entry): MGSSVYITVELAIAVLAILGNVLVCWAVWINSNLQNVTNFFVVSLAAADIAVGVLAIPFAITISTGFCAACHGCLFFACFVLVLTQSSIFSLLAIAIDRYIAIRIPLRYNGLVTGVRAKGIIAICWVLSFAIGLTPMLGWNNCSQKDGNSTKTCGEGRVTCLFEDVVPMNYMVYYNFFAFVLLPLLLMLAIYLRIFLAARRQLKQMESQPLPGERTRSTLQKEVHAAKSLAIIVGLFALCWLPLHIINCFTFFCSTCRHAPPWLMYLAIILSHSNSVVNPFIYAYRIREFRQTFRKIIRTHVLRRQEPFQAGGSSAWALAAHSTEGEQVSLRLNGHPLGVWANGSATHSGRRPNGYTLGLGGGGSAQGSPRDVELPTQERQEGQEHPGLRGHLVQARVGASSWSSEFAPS
# MEASUREMENT_DESCRIPTION: Binding of [3H]CGS21680 to A2a (rat)
# RUN_PARAMETERS: [3H]CGS21680, Cheng-Prusoff; read-out: Ki rA2a
ASSAY_ENDPOINT: Ki (nM)
Write the answer as a number in nM, unit excluded.

                                   compound  recorded_value
0  OC[C@H]1S[C@@H](n2cnc3c(NCc4cccc(I)c4)nc(Cl)nc32)[C@H](O)[C@@H]1O [Compound 20]             285
1  CNC(=O)[C@H]1S[C@@H](n2cnc3c(NCc4cccc(I)c4)nc(Cl)nc32)[C@H](O)[C@@H]1O [Compound 36]             348

Field: next compound
## Input Query: Ki; subject: CNC(=O)[C@H]1S[C@@H](n2cnc3c(NC)nc(Cl)nc32)[C@H](O)[C@@H]1O [Compound 33]
## Output 6340
